# Test system: Tau phosphorylation at Ser396 (pSer396) in SH-SY5Y cells
# protocol-text: Tau phosphorylation at Ser396 (pSer396) cell assay, ELISA/western blot
# Type: cell-based, human
# applied-conditions: Homo sapiens; SH-SY5Y cells, overnight (16-18 h); read-out: pSer396 Tau EC50
measurement-name: EC50

Exercise: Lab note: need EC50 with Tau phosphorylation at Ser396 (pSer396) in SH-SY5Y cells for entry `CN1CCN(C[C@H]2CC[C@H](C(=O)Nc3cc4cc(-c5cncc(F)c5)ccc4cn3)CC2)CC1` , please look it up.
Key: 4.6 µM

Exercise: Lab note: need EC50 with Tau phosphorylation at Ser396 (pSer396) in SH-SY5Y cells for entry `CN1CCC(C(=O)Nc2cc3cc(-c4ccccn4)ccc3cn2)CC1` , please look it up.
Key: > 10 µM

Exercise: Lab note: need EC50 with Tau phosphorylation at Ser396 (pSer396) in SH-SY5Y cells for entry `O=C(Nc1cc2cc(-c3cncc(OC4CCNCC4)c3)ccc2cn1)C1CC1` , please look it up.
Key: 1.1 µM

Exercise: Lab note: need EC50 with Tau phosphorylation at Ser396 (pSer396) in SH-SY5Y cells for entry `[2H]c1nc([2H])c(-c2ccc3cnc(NC(=O)CN4CCN(C)CC4)cc3c2)c([2H])c1[2H]` , please look it up.
Key: 9.8 µM

Exercise: Lab note: need EC50 with Tau phosphorylation at Ser396 (pSer396) in SH-SY5Y cells for entry `CN1CCC(C(=O)Nc2cc3cc(-c4cncc(N5CCCC5)c4)ccc3cn2)CC1` , please look it up.
Key: > 10 µM

Exercise: Lab note: need EC50 with Tau phosphorylation at Ser396 (pSer396) in SH-SY5Y cells for entry `CN1CCN(CC(=O)Nc2cc3cc(-c4cncc(C(F)(F)F)c4)ccc3cn2)CC1` , please look it up.
Key: > 10 µM

Exercise: Lab note: need EC50 with Tau phosphorylation at Ser396 (pSer396) in SH-SY5Y cells for entry `Cc1ncc(-c2ccc3cnc(NC(=O)C4CCN(C)CC4)cc3c2)cn1` , please look it up.
Key: > 10 µM

Exercise: Lab note: need EC50 with Tau phosphorylation at Ser396 (pSer396) in SH-SY5Y cells for entry `CN1CCN(CC(=O)Nc2cc3cc(-c4ccc(F)nc4)ccc3cn2)CC1` , please look it up.
Key: > 10 µM

* * *

# assay-target: recombinant GSK3β kinase (Homo sapiens (Human))
# Sequence (P49841 whole entry): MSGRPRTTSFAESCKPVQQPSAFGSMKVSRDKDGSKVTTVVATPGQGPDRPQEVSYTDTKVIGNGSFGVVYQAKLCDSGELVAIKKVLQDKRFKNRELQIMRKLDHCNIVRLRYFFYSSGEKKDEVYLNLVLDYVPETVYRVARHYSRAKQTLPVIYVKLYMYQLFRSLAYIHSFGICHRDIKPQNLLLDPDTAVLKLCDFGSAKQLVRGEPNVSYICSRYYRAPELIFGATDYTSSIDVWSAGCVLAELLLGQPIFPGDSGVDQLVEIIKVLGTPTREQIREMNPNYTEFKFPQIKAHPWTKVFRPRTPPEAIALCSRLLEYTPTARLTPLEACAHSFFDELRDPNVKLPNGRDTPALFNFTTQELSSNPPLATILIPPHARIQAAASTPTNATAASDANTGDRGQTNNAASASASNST
# protocol-text: GSK3β kinase assay (Ser/Thr 09 peptide Z-lyte, FRET);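 further: FRET read-out as coumarin over fluorescein emission ratio, compounds incubated one hour at room temperature, IC50 from dose-response curve fit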
# Assay type: biochemical
# applied-conditions: GSK3β kinase; head says EC50, method says IC50; ATP 46 μM
pEC50: −log10 of the molar value.
measurement-name: pEC50

compound="CN1CCCC(C(=O)Nc2cc3cc(-c4cnccn4)ccc3cn2)CC1 (stereo not shown)" assay_target="recombinant GSK3β kinase (Homo sapiens (Human))" recorded_measurement=5.81

P: O=C(CN1CCOCC1)Nc1cc2cc(-c3cnccn3)ccc2cn1
Q: CC(C)N1CCC(Nc2cncc(-c3ccc4cnc(NC(=O)C5CC(F)(F)C5)cc4c3)n2)CC1
Exercise: Compare reported pEC50 values for P and Q . Which is lower? Choose, then provide that item's label.
Key: P
